# reported HDAC6 selectivity (fold); entries follow
Target: human recombinant HDAC6 (Homo sapiens)
Construct: purchased Calbiochem 382180
Sequence (Q9UBN7 1-1215): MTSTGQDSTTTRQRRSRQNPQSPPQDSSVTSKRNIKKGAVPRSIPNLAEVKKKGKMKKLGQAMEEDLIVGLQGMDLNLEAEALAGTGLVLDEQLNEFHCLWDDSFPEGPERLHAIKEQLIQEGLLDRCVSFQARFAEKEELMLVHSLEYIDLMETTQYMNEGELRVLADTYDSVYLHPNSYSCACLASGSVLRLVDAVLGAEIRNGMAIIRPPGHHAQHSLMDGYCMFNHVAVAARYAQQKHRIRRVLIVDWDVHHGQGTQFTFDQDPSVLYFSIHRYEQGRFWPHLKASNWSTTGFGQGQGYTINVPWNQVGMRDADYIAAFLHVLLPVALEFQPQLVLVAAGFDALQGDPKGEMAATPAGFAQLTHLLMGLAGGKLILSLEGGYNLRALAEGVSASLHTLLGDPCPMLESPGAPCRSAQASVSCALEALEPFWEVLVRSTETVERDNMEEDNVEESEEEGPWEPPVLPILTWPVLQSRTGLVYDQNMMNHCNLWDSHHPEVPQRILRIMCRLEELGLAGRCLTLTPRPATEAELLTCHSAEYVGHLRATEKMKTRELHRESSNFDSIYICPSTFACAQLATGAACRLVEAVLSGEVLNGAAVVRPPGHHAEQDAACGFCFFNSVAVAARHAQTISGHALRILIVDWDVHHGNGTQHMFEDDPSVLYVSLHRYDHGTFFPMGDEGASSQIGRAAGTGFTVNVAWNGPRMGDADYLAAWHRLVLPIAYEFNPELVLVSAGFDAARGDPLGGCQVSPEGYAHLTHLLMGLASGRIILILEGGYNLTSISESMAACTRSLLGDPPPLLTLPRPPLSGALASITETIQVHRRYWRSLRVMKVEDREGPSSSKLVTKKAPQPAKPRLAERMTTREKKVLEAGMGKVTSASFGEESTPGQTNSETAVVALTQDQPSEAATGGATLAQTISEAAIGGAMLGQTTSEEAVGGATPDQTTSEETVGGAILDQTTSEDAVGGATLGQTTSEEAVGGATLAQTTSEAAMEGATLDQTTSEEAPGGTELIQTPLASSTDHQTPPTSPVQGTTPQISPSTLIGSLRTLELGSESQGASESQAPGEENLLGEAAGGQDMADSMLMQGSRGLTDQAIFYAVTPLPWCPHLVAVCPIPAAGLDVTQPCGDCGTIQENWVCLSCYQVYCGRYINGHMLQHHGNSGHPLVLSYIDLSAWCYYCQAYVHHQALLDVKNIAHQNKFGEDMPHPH
Assay: HDAC6 enzyme activity inhibition assay (HDAC Fluorimetric Drug Discovery Kit)
Type: biochemical
Conditions: HDAC6 over HDAC1
// return numeric value only (unit: fold, not printed)

Cn1ncc2ccc(-c3cccc(N(Cc4ccc(-c5nnc(C(F)(F)F)o5)cc4)C(=O)N4CCS(=O)(=O)CC4)c3)cc21 [Compound 21438] : 4
O=C(NCC1CCOCC1)N(Cc1ccc(-c2nnc(C(F)(F)F)o2)cc1)c1ccccc1 [Compound 21357] : 21
O=C(N1CCN(C2COC2)CC1)N(Cc1ccc(-c2nnc(C(F)F)o2)cn1)c1ccccc1 [Compound 21905] : 1454
CN(C)[C@@H]1CCN(C(=O)N(Cc2ccc(-c3nnc(C(F)F)o3)cc2F)c2ccc3cnn(C)c3c2)C1 [Compound 21736] : 432
CC(C)(C)N1CCN(C(=O)N(Cc2ccc(-c3nnc(C(F)(F)F)o3)cc2F)c2ccccc2)CC1 [Compound 21382] : 127

Prompt line: What HDAC6 selectivity (fold) appears in the records for this compound with human recombinant HDAC6 (Homo sapiens)? O=C(N1CCOCC1)N(Cc1ccc(-c2nnc(C(F)(F)F)o2)cc1F)c1cccc(F)c1 [Compound 21846]
Response line: 173

Prompt line: Give recorded HDAC6 selectivity (fold) with human recombinant HDAC6 (Homo sapiens) for the following compound: COCCN1CCN(C(=O)N(Cc2ccc(-c3nnc(C(F)(F)F)o3)cc2)c2ccccc2)CC1 [Compound 21345]
Response line: 54

Prompt line: # query: HDAC6 selectivity (fold) | item CCC(=O)N1CCN(C(=O)N(Cc2ccc(-c3nnc(C(F)(F)F)o3)cc2)c2ccccc2)CC1 [Compound 21366] | system: human recombinant HDAC6 (Homo sapiens)
Response line: 79

Prompt line: Test system human recombinant HDAC6 (Homo sapiens); read-out HDAC6 selectivity (fold); what value for O=C(N1CCOCC1)N(Cc1ccc(-c2nnc(C(F)(F)F)o2)cc1)c1ccc(F)c(Cl)c1 [Compound 21594] ?
Response line: 115

Prompt line: # returns recorded HDAC6 selectivity (fold) (system: human recombinant HDAC6 (Homo sapiens)) for O=C(N1CCS(=O)(=O)CC1)N(Cc1ccc(-c2nnc(C(F)F)o2)cc1F)c1ccc(CN2CC(F)(F)C2)cc1 [Compound 21914]
Response line: 63

Prompt line: Return HDAC6 selectivity (fold) measured with human recombinant HDAC6 (Homo sapiens) given this compound: O=C(N1CCS(=O)(=O)CC1)N(Cc1ccc(-c2nnc(C(F)(F)F)o2)cc1)c1ccc(C(F)(F)F)cc1 [Compound 21412]
Response line: 21

Prompt line: Lab note: need HDAC6 selectivity (fold) with human recombinant HDAC6 (Homo sapiens) for entry O=C(N1CCS(=O)(=O)CC1)N(Cc1ccc(-c2nnc(C(F)(F)F)o2)cc1)c1ccc(Br)cc1 [Compound 21413] , please look it up.
Response line: 41

Prompt line: For the record CCN1CCN(C(=O)N(Cc2ccc(-c3nnc(C(F)F)o3)cc2)c2ccc(Cl)cc2)CC1 [Compound 21880] , what value of HDAC6 selectivity (fold) is listed for human recombinant HDAC6 (Homo sapiens)?
Response line: 467

###

biological target: human recombinant HDAC6 (Homo sapiens); construct: purchased Calbiochem 382180; assay: HDAC6 enzyme activity inhibition assay (HDAC Fluorimetric Drug Discovery Kit); type: biochemical; conditions: HDAC6 over HDAC1
Quantity Name: HDAC6 selectivity (fold)
Return type: number; implicit unit fold.

Solved entries:
O=C(N1CCS(=O)(=O)CC1)N(Cc1ccc(-c2nnc(C(F)F)o2)cc1F)c1ccc2c(c1)CCO2 : 294
CCN1CCN(C(=O)N(Cc2ccc(-c3nnc(C(F)(F)F)o3)cc2)c2ccc(Cl)cc2)CC1 : 71
CN(C)[C@@H]1CCN(Cc2ccc(N(Cc3ccc(-c4nnc(C(F)F)o4)cc3F)C(=O)N3CCS(=O)(=O)CC3)cc2)C1 : 151
CN(C)CCCN1CCN(CCNC(=O)N(Cc2ccc(-c3nnc(C(F)F)o3)cc2F)c2ccccc2)CC1 : 85

Now look at this one.
Prompt line: Suppose we examine the compound O=C(N1CCOCC1)N(Cc1ccncc1)Cc1ccc(-c2nnc(C(F)(F)F)o2)cc1 ; what HDAC6 selectivity (fold) value has been reported?
Response line: 6

###

Target: human recombinant HDAC6 (Homo sapiens, UniProt Q9UBN7)
Construct: purchased Calbiochem 382180
Sequence (Q9UBN7 1-1215): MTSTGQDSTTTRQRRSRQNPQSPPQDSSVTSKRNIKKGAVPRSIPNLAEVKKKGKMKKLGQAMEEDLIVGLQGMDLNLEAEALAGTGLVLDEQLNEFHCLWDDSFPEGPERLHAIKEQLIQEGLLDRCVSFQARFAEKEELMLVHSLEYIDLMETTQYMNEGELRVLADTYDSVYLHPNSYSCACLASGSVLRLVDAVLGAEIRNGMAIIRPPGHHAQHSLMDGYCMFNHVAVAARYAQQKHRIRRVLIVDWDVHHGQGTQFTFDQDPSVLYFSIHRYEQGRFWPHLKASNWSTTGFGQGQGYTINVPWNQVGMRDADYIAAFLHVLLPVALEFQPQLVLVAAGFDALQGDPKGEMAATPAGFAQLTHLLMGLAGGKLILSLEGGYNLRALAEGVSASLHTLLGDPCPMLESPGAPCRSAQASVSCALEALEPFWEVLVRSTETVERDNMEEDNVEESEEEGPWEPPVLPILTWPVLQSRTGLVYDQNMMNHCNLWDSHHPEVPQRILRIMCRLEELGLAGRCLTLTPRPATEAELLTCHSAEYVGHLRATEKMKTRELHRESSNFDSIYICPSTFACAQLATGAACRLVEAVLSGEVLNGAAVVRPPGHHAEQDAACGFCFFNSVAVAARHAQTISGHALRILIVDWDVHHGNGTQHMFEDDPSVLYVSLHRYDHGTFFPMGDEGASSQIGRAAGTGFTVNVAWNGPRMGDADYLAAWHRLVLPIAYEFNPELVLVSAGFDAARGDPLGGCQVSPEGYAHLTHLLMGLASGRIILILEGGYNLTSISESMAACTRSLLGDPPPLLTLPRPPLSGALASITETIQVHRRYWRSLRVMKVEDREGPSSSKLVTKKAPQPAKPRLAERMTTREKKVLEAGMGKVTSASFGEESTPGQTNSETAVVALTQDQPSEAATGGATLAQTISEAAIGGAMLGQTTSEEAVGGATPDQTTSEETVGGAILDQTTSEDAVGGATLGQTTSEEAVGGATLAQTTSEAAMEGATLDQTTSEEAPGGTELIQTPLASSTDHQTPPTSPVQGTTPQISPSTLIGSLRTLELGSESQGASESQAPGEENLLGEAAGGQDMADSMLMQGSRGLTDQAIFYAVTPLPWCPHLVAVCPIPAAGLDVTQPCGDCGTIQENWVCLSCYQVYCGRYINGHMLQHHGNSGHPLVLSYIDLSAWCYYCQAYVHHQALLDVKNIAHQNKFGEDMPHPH
Assay: HDAC6 enzyme activity inhibition assay (HDAC Fluorimetric Drug Discovery Kit)
Format: biochemical
Conditions: human recombinant HDAC6, same protocol as HDAC1; read-out: HDAC6
Quantity Name: IC50 (nM)
Numbers only; they are read as nM.

See these solved cases before continuing.
O=C(N1CCS(=O)(=O)CC1)N(Cc1ccc(-c2nnc(C(F)F)o2)cc1F)c1ccc(CN2CCN(C3COC3)CC2)cc1 : 346
CN1CCN(C(=O)N(Cc2ccc(-c3nnc(C(F)F)o3)cc2F)c2cccc(-c3cccnc3)c2)CC1 : 18
Cc1cccc(N(Cc2ccc(-c3nnc(C(F)F)o3)cn2)C(=O)N2CCN(C)CC2)c1 : 31

Okay, next one:
Prompt line: Entry COc1ccc(N(Cc2ccc(-c3nnc(C(F)(F)F)o3)cc2)C(=O)N2CCS(=O)(=O)CC2)cc1 , system human recombinant HDAC6 (Homo sapiens, UniProt Q9UBN7): what IC50 was measured?
Response line: 317
